PROTOCOL_DESCRIPTION: LNP size and polydispersity index (PDI) by dynamic light scattering (DLS)
Format: physicochemical
CONDITION_SET: Table 1; LNP lipid:DSPC:Cholesterol:DMG-PEG2k 50:10:38.5:1.5 mol %; hEPO mRNA; N:P 6
Values of PDI strictly less than 0.09 map to Y, and values of at least 0.09 map to N.

# count of solved cases: 3
Input CCCCCCCCCC(=O)OCCN(CCOC(=O)CCCCCCCCC)C(=O)C(N)Cc1c[nH]cn1 (stereo not shown) [Compound 128] ; condition: PDI strictly below 0.09. Does it hold?
Y

# TODO verify PDI < 0.09 strictly for this compound: CCCCCCCCC(CCCCCC)C(=O)OCCN(CCOC(=O)C(CCCCCC)CCCCCCCC)C(=O)C(N)CCCCN (stereo not shown) [Compound 123]
N

Hello, is PDI of the following compound strictly smaller than 0.09? CCCCCCCCCCCOC(=O)CCCCCN(CCO)CCCCCCCC(=O)OC(CCCCCCCC)CCCCCCCC [SM-102, reference compound]
Y

***
Confirm or reject: PDI of CCCCCCCCCCCC(=O)OCCN(CCOC(=O)CCCCCCCCCCC)C(=O)C(N)CO (stereo not shown) [Compound 134] lies strictly below 0.09
N

Confirm or reject: PDI of CCCCCCCCC(CCCCCC)C(=O)OCCN(CCOC(=O)C(CCCCCC)CCCCCCCC)C(=O)C(N)CO (stereo not shown) [Compound 130] lies strictly below 0.09
N

* * *

Known Encapsulation Efficiency % of a selection of molecules
PROTOCOL_DESCRIPTION: Encapsulation efficiency (EE %) by fluorescence based Ribogreen assay
Format: physicochemical
CONDITION_SET: Table 1; LNP lipid:DSPC:Cholesterol:DMG-PEG2k 50:10:38.5:1.5 mol %; hEPO mRNA; N:P 6
Give the number; % is assumed, so skip it.

Known results for molecules:
Indicate the recorded Encapsulation Efficiency % value for this molecule: CCCCCCCC/C=C\CCCCCCCC(=O)OCCN(CCOC(=O)CCCCCCC/C=C\CCCCCCCC)C(=O)C(N)CO (stereo not shown)
92.9

Give the value of Encapsulation Efficiency % reported for the following: CCCCCCCC/C=C\CCCCCCCC(=O)OCCN(CCOC(=O)CCCCCCC/C=C\CCCCCCCC)C(=O)C(N)Cc1ccccc1 (stereo not shown)
95.2

Give a short answer stating reported Encapsulation Efficiency % for CCCCCCCCC(CCCCCC)C(=O)OCCN(CCOC(=O)C(CCCCCC)CCCCCCCC)C(=O)C(C)N (stereo not shown) .
95.9

Answer with the recorded Encapsulation Efficiency % for the molecule listed here: CCCCCCCCC(CCCCCC)C(=O)OCCN(CCOC(=O)C(CCCCCC)CCCCCCCC)C(=O)CN (stereo not shown)
91.3

Supply Encapsulation Efficiency % value. Item: CCCCCCCCC(CCCCCC)C(=O)OCCN(CCOC(=O)C(CCCCCC)CCCCCCCC)C(=O)C(N)CCCCN (stereo not shown)
97

Others:
Determine its reported Encapsulation Efficiency %: CCCCCCCC/C=C\CCCCCCCC(=O)OCCN(CCOC(=O)CCCCCCC/C=C\CCCCCCCC)C(=O)CN
97.9

Look up and report measured Encapsulation Efficiency % for this entry: CCCCCCCCCCCC(=O)OCCN(CCOC(=O)CCCCCCCCCCC)C(=O)C(N)CCCCN (stereo not shown)
93.1
